Kindly supply the reported LETHAL CONCENTRATION Strep values for the records listed here.
test system: S. pyogenes; assay type: cell-based; details: thin agarose plates, overnight incubation at 30°C
Where no end group is shown, it is not given here.
Form entry: enter the amount, then its unit.

Identify LETHAL CONCENTRATION Strep associated with the substance H-KWKLFKKIEKVGQNIRDGIIKAGPAVAVVGQATQIAK-NH2 [CA(1-37), reference compound]
4 µM

Identify LETHAL CONCENTRATION Strep associated with the substance KWKLFKKIEKVGQNIRDGIGAVLKVL-NH2 [CA(1-17)M(1-9)]
0.2 µM

Identify LETHAL CONCENTRATION Strep associated with the substance KWKLFKKIEKVGQNIRDGGIGAVLKV-NH2 [CA(1-18)M(1-8)]
3 µM

Identify LETHAL CONCENTRATION Strep associated with the substance H-KWKVFKKIEKMGRNIRNGIVKAGPAIAVLGEAKAL-NH2 [CB(1-35), reference compound]
12 µM
